# target-system: STING (Homo sapiens, UniProt Q86WV6)
# Construct: endogenous in cells
# Sequence (Q86WV6 whole entry): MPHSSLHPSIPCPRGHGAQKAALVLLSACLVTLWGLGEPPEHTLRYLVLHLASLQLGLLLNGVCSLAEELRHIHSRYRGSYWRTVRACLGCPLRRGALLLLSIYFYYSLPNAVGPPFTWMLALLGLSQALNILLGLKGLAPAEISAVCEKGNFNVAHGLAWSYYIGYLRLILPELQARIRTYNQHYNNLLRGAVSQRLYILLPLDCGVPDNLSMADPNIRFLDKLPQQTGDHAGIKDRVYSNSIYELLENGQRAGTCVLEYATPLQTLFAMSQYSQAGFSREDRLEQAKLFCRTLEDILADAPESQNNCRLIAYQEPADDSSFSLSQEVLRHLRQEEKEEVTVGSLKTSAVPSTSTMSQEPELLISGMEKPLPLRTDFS
# assay-remarks: Human FB STING antagonist assay (IFN-a/b release)
# details: Human skin fibroblasts, 2h pre-treatment, 300 nM GSK STING agonist (CAS number: 2138299-34-8) for 20 h, release of IFN-a/b by HEK-Blue IFN-α/β bioassay
observation-type: IC50 (µM)
# value in µM; strip the unit string

Worked examples, 4 compounds total:
CCn1nc(C)cc1C(=O)N=c1n(C)c2cc(C(N)=O)ccc2n1CCC(CCn1c(=NC(=O)c2cc(C)nn2CC)n(C)c2cc(C(N)=O)ccc21)OCC(=O)N1CCC[C@H]1c1nnn[nH]1 (some centres unmarked) [Example 28] : 3.9
CCn1nc(C)cc1C(=O)N=c1n(C)c2cc(C(N)=O)ccc2n1CCC(CCn1c(=NC(=O)c2cc(C)nn2CC)n(C)c2cc(C(N)=O)ccc21)OCC(=O)Nc1ccccc1 (centres unmarked) [Example 6] : 7.6
CCn1nc(C)cc1C(=O)N=c1n(C)c2cc(C(N)=O)ccc2n1CCC(CCn1c(=NC(=O)c2cc(C)nn2CC)n(C)c2cc(C(N)=O)ccc21)OCC(=O)N1CCC[C@H]1C(=O)N1CCc2cc(OC)ccc2C1 (some centres unmarked) [Example 26] : 1.4
CCn1nc(C)cc1C(=O)N=c1n(C)c2cc(C(N)=O)ccc2n1CCC(CCn1c(=NC(=O)c2cc(C)nn2CC)n(C)c2cc(C(N)=O)ccc21)OCC(=O)N1CCC[C@H]1c1cccc(OC)c1 (some centres unmarked) [Example 11] : 3.4

Then this compound:
q: State its IC50: CCn1nc(C)cc1C(=O)N=c1n(C)c2cc(C(N)=O)ccc2n1CCC(CCn1c(=NC(=O)c2cc(C)nn2CC)n(C)c2cc(C(N)=O)ccc21)OCC(=O)N1CCN(C(C)=O)CC1 (centres unmarked) [Example 12]
a: 9.8
